B1: LINE1-full (parent)
chain: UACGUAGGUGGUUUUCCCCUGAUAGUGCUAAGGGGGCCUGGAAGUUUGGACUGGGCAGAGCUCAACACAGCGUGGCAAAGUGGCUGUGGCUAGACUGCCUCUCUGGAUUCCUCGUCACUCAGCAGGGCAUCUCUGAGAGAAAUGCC

# Variants of: B1
# Assay Details: self-cleavage, relative activity (ratio to wild type); higher = more cleavage; in vitro, sequencing; the parent is a self-cleaving ribozyme
Assign self-cleavage to each entry below.
One number for each entry.

1. UACGUAGGUGGUUCUCCCCUGAUAGUGCUAAGGGGGCCUGGUAGUUUGGACUGGGCAGAGCUCAACACAGCGUGGCAAAGUGGCUGUGGCUAGACUGCCUCUCUGGAUUCCUCGUCACUCAGCAGGGCAUCUCUGAGAGAAAUGCC
1.02
2. UACGUAGGUGGUUUUCCCCUGACAGUGCUAAGGGGGCCUGGAAGUUUGGACUGGGCAGAGCUCAACACAGCGUGGCAAAGUGACUGUGGCUAGACUGCCUCUCUGGAUUCCUCGUCACUCAGCAGGGCAUCUCUGAGAGAAAUGCC
1.02

Consider now this further variant.
Task item: Query: self-cleavage; subject: UACGUAGGUGGCUUUCCCCUGAUAGUGCUAAGGGGGCCUGGAAGUUUGGACUGGGCGGAGCUCAACACAGCGUGGCAAAGUGGCUGUGGCUAGACUGCCUCUCUGGAUUCCUCGUCACUCAGCAGGGCAUCUCUGAGAGAAAUGCC
Reply: 1
